- Test system: ATP;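 note: ATP exposure 15 min at 22 °C before imaging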
- procedure summary: switch fluorescence ratio, 500 uM ATP over buffer (Cy3 cluster intensity, sum of 5 cycles each) (fold (ratio)); higher = stronger signal-on switching upon ATP binding; sequences stand for … in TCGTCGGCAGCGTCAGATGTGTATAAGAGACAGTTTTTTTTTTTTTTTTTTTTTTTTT…TC
- experimental setup: aptamer strand: ATP DNA aptamer (quencher-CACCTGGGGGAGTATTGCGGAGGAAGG + anchor), 100 nM annealed; ATP concentration: 500 uM
measured property: switch fluorescence ratio
Write the number on its own, no unit after it.

Consider the worked cases shown below.
>  <chain>
ATATGGTGTT

>  <assay result>
1.01

$$$$
>  <chain>
GTGGGGGGCT

>  <assay result>
0.984

$$$$
>  <chain>
CCTGGTTTTT

>  <assay result>
1.12

$$$$
>  <chain>
TATTTCATAT

>  <assay result>
1

$$$$
>  <chain>
ATAGGCGTCG

>  <assay result>
0.967

$$$$

Recorded switch fluorescence ratio (sequence TTTGGGTAAA ): 1.02

switch fluorescence ratio reported for this sequence GACAGGGGAG : 1

Form: sequence = TAGTGTAGGT ; switch fluorescence ratio = 1.03
